// transport percentage lookup, one value per entry
System: Caco-2 cell monolayers
Assay: Transport experiment with Caco-2 cell monolayers
Settings: Caco-2 cell monolayers, extract 20 mg/mL, AP→BL

{"Molecule": "COc1ccc(C(=O)O)cc1OC", "Result Units": "%", "transport percentage": 127.58}
{"Molecule": "O=c1cc(-c2ccc(O)c(O)c2)oc2c(C3OC(CO)C(O)C(O)C3OC3OC(CO)C(O)C(O)C3O)c(O)cc(O)c12 (stereo not drawn)", "Result Units": "%", "transport percentage": 22.93}
{"Molecule": "COc1cc(C(=O)O)cc(CC=C(C)C)c1O", "Result Units": "%", "transport percentage": 148.57}
{"Molecule": "O=C1CC[C@H]2c3cc(O)c(O)cc3CCN12", "Result Units": "%", "transport percentage": 153.03}
{"Molecule": "O=c1cc(-c2ccc(O)c(O)c2)oc2c([C@@H]3O[C@H](CO)[C@@H](O)[C@H](O)[C@H]3O)c(O)cc(O)c12", "Result Units": "%", "transport percentage": 16.39}
{"Molecule": "O=c1cc(-c2ccc(O)cc2)oc2c([C@@H]3O[C@H](CO)[C@@H](O)[C@H](O)[C@H]3O)c(O)cc(O)c12", "Result Units": "%", "transport percentage": 16.41}

====

Test system: Caco-2 cell monolayers
Assay: Transport experiment with Caco-2 cell monolayers
Settings: intestinal bacterial transformed AEOF; second of three lines per compound (middle concentration, not given)
Reported After transported with Caco-2 cell monolayers is given for each of the following compounds.
Value Type: After transported with Caco-2 cell monolayers (µg/mL)

{"Smiles Representation": "O=c1c(O[C@@H]2O[C@H](CO)[C@@H](O)[C@H](O)[C@H]2O)c(-c2ccc(O)c(O)c2)oc2cc(O)cc(O)c12", "Result Units": "µg/mL", "Meas Value": 0.00}
{"Smiles Representation": "COc1cc(C(=O)O)cc(CC=C(C)C)c1O", "Result Units": "µg/mL", "Meas Value": 17.18}
{"Smiles Representation": "O=C1CC[C@H]2c3cc(O)c(O)cc3CCN12", "Result Units": "µg/mL", "Meas Value": 13.59}
